target: BRD4 Bromodomain 2 (BRD4 BD2) (Homo sapiens, UniProt O60885); construct: 333-460 were cloned, expressed, and purified to homogeneity; assay: AlphaScreen binding assay, BRD4 BD2; conditions: His-tagged BRD4 BD2 100 nM, biotinylated H4 (1-21) K5/8/12/16 tetra-acetylated peptide 100 nM, compounds listed under IC50 range headings
EXPERIMENTAL ENDPOINT: IC50

Would you kindly share the measured IC50 for CC(=O)N1c2ccc(-c3cnn(C4CC4)c3)c(Oc3ncccc3C#N)c2CC[C@@H]1C ?
< 50 nM

Would you kindly share the measured IC50 for CC(=O)N1c2ccc(-c3cnn(CCO)c3)c(Oc3ncc(C(C)C)cn3)c2CC[C@@H]1C ?
< 50 nM

Would you kindly share the measured IC50 for CCCOc1c(C2CCN(CC)CC2)ccc2c1CC[C@H](C)N2C(C)=O ?
≥ 500 nM

Would you kindly share the measured IC50 for CC(=O)N1c2ccc(-c3ccc(S(C)(=O)=O)cc3)c(OCC(=O)N(C)C)c2CC[C@@H]1C ?
≥ 500 nM

Would you kindly share the measured IC50 for CC(=O)N1c2ccc(-c3cnn(CC(C)(C)O)c3)c(OCC3CCCC3)c2CC[C@@H]1C ?
50 to 500 nM

Would you kindly share the measured IC50 for CCCOc1c(-c2ccc(OCCN(C)C)cc2)ccc2c1CC[C@H](C)N2C(C)=O ?
50 to 500 nM

Would you kindly share the measured IC50 for CC(=O)N1c2ccc(-c3cnn(C4CC4)c3)c(Oc3ccccn3)c2CC[C@@H]1C ?
50 to 500 nM

Would you kindly share the measured IC50 for CC(=O)N1c2ccc(-c3cnn(C4CC4)c3)c(Oc3ccc(F)cc3)c2CC[C@@H]1C ?
< 50 nM
